STUDY TARGET: rh-α5β1 (Homo sapiens, UniProt P05556+P08648)
Sequence (P08648 42-894 limits assumed): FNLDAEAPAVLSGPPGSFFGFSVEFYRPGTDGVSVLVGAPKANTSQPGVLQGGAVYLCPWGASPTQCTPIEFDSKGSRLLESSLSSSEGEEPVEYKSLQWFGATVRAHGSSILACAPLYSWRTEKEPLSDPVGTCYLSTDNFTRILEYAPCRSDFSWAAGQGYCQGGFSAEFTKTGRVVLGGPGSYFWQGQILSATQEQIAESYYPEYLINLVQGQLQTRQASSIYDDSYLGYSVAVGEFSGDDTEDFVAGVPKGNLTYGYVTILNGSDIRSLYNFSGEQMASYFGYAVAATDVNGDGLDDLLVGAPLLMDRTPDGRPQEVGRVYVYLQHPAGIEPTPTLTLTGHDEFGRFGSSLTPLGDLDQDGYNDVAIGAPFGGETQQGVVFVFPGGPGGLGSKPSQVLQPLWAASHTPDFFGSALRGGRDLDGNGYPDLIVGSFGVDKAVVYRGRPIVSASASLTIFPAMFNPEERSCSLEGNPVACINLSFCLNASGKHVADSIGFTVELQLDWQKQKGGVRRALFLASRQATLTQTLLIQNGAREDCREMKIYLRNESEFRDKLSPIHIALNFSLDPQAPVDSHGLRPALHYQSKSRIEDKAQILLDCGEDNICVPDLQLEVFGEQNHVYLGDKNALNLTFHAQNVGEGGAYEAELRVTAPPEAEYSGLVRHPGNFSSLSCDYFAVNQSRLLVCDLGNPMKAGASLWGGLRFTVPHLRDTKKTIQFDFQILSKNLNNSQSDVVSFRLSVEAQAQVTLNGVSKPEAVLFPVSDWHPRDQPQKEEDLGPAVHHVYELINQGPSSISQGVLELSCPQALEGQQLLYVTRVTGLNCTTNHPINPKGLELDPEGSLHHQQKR
Sequence (P08648 895-995 limits assumed): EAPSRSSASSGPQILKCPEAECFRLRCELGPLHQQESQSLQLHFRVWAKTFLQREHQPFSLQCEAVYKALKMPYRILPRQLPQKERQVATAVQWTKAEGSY
Sequence (P05556 21-728 limits assumed): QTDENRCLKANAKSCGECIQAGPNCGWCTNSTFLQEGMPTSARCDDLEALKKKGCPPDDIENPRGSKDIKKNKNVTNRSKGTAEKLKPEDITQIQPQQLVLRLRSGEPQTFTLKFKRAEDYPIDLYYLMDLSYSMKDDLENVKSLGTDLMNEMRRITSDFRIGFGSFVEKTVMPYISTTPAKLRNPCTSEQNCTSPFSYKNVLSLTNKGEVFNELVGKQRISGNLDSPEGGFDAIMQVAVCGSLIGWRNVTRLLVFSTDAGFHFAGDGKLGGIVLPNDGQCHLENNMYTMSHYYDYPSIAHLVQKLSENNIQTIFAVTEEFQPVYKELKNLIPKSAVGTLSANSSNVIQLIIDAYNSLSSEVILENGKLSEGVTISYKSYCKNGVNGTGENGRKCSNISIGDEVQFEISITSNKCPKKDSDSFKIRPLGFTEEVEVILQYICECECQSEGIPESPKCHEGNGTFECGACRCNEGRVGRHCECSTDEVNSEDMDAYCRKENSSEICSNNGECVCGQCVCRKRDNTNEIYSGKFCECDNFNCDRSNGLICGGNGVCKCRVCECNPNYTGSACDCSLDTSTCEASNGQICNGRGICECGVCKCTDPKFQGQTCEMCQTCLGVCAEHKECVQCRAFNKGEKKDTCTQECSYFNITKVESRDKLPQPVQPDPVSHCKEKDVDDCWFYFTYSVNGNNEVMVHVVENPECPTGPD
EXPERIMENTAL PROTOCOL: Competition binding studies by Biolayer Interferometry (epitope groups)
ASSAY CONTEXT: two epitope groups among 6 antibodies
MEASURED ATTRIBUTE: epitope group

What measured epitope group goes with A2-3B06: anti-α5β1 antibody, VH SEQ ID NO:42, VL SEQ ID NO:43 (antibody, V domains shown, A2-3B06 VH Sequence; A2-3B06 VL Sequence) VH: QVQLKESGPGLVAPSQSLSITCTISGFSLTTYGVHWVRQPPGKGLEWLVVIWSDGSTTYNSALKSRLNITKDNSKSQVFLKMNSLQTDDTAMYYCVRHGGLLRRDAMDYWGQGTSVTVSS VL: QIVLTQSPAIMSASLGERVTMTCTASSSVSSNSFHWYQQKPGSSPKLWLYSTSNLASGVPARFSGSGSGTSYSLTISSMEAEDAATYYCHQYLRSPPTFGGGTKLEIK ?
second group

Then this molecule: A-15B08: anti-α5β1 antibody, VH SEQ ID NO:25, VL SEQ ID NO:26; tested as mouse hybridoma antibody and as human IgG4 chimera (antibody, V domains shown, A-15B08 VH Sequence; A-15B08 VL Sequence, tested as mouse hybridoma antibody and as human IgG4 chimera) VH: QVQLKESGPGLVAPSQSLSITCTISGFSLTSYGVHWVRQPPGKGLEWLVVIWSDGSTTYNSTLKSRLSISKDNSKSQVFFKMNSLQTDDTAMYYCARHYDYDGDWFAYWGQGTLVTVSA VL: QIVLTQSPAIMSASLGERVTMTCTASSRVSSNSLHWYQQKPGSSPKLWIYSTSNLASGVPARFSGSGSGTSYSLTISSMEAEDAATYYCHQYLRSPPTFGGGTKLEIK
second group
